- Tested Target: HIF1A
- Method Notes: HeLa, 100 nM transfected, 24 h, mean of 3
- Conditions: ASO
Bases are written 5' to 3'; sugars and linkages follow in the same order, as letters with counts (s phosphorothioate, o phosphodiester; PS: all linkages phosphorothioate). C may stand for cytosine or 5-methylcytosine; the collection does not tell. l = locked nucleic acid (LNA); d = 2'-deoxy (DNA)
Would you please tag the item T when its caspase activation (% of PBS control) is 400 or above, and F when it is below?

# Residue Codes, Group Label
records = [
    ("TGGCAAGCATCCTGTA (sugars l1 d1 l3 d8 l3, PS)", "T"),
]

Exam item: decide whether the reported caspase activation (% of PBS control) for GCAAGCATCCTGT (sugars l3 d7 l1 d1 l1, PS) is at least 400.
T

Exam item: decide whether the reported caspase activation (% of PBS control) for ACTGCCTTCTTAC (sugars l2 d1 l1 d8 l1, PS) is at least 400.
F

Exam item: decide whether the reported caspase activation (% of PBS control) for TACTGCCTTCTTA (sugars l2 d1 l1 d6 l3, PS) is at least 400.
T

Exam item: decide whether the reported caspase activation (% of PBS control) for GCAAGCATCCTGT (sugars l3 d8 l2, PS) is at least 400.
T
